Tested on: RXF 393 renal
Assay: NCI tumour cell line growth inhibition, 48 h
Label class 1 when TGI is at or above 7 µM; anything below gets class 0.

| molecule | label_class |
| --- | --- |
| CCCCCCCCNC(=O)C1=C(C)NC(C)=C(C(=O)NCCCCCCCC)C1 | class 1 |
| CN(CC(=O)O)c1ncc2c(n1)-c1ccccc1OC2c1ccccc1 (stereo unspecified) | class 1 |
| C#CC[N+](CCO)(CCO)CCCCCCCCCCCCCCCCCC | class 0 |
| CC(C)(C)c1cc2c(O)c(c1)C(c1ccccc1)c1cc(C(C)(C)C)cc(c1O)Cc1cc(C(C)(C)C)cc(c1O)C(c1ccccc1)c1cc(C(C)(C)C)cc(c1O)C2 (stereo unspecified) | class 1 |
| CCCn1c2c(c3ccccc3c1=O)C(=O)c1cc3c(cc1-2)OCO3 | class 1 |
| Cn1c([N+](=O)[O-])cnc1CN1CCN(CCO)CC1 | class 1 |
| COC(=O)C12C3C4C1C1C2C3C41C(=O)O (stereo unspecified) | class 1 |
| COC(=O)c1c2c(c(C)[n+]([O-])c1C)C(=O)C(NCc1cccc(Cl)c1)=CC2=O | class 0 |
| CC(C)(C)CC(C)(C)c1ccc(OCCSC(=N)N)cc1 | class 0 |
| CCCCCCCCCCCCCCCCNC(=O)OC(C)C | class 1 |
| CCSc1ccc2c(c1)N(CCCN1CCN(C)CC1)c1ccccc1S2 | class 1 |
| CC12OC3(O)C4C5CC(C6C5C3C61)C42 (stereo unspecified) | class 1 |
| CCCCSSC(=S)N(CC)CC | class 1 |
| NC(=O)c1ncn2c1NCC1OC2C(O)C1O (stereo unspecified) | class 1 |
| O=C1c2ccc3c4c(ccc(c24)C(=O)N1CCCNCc1ccccc1F)C(=O)N(CCCNCc1ccccc1F)C3=O | class 0 |
| COc1ccc2c(c1)O[C@@H]1[C@@H](OC3OC(CO)C(O)C(O)C3O)Oc3cc(OC)c(OC)cc3[C@]1(O)C2=O (stereo partly specified) | class 1 |
| O=C(c1ccco1)N(Cc1cccnc1)C(=S)N(Cc1cccnc1)C(=O)c1ccco1 | class 1 |
| COc1ccc(/C=N/Nc2nc(N)nc(N3CCCC3)c2C#N)cc1 | class 1 |
| O=C(CSCC(=O)N/N=C/c1cccc(C(F)(F)F)c1)N/N=C/c1cccc(C(F)(F)F)c1 | class 1 |
| COc1cc(-c2cc(/C=C3\C(=O)Nc4ccc(Cl)cc43)[nH]n2)cc(OC)c1OC | class 1 |
| C[C@]12CCc3nonc3C1CC[C@@H]1C2CC[C@]2(C)C(=O)/C(=N\O)CC12 (stereo partly specified) | class 1 |

====

Tested on: OVCAR-8 ovarian
Assay: NCI tumour cell line growth inhibition, 48 h
Here the recorded TGI is given for each entry.
result_type: TGI

| compound | result_type | recorded_result |
| --- | --- | --- |
| O=C(NNC(=O)C1CCN(S(=O)(=O)c2ccc(-c3ccccc3)cc2)CC1)c1ccc(C(F)(F)F)cc1 | TGI | > 50 µM |
| Cc1ccc(NS(=O)(=O)c2ccc(-c3cnc(C4CC4)o3)cc2)cc1C | TGI | > 55.9 µM |
| CCC(C)NC1=C(NC(C)=O)C(=O)c2ccccc2C1=O (stereo not given) | TGI | > 75 µM |
| Cc1cc(C)nc(NS(=O)(=O)c2ccc(NC(=O)c3cccc4c(Nc5ccc(S(=O)(=O)N=C(N)N)cc5)c5ccc(Cl)cc5nc34)cc2)n1 | TGI | > 100 µM |
| CCCCCCCCNC(=O)C1=C(C)NC(C)=C(C(=O)NCCCCCCCC)C1 | TGI | > 100 µM |
| CN=c1oc2ccccc2cc1C(N)=O | TGI | > 100 µM |
| O=C(c1ccco1)N(Cc1cccnc1)C(=S)N(Cc1cccnc1)C(=O)c1ccco1 | TGI | 66 µM |
| COc1ccc(NC(=O)C(=O)NO)c(OC)c1 | TGI | 33.3 µM |
| COc1ccc(N(CC(=O)O)S(=O)(=O)c2ccccc2)cc1 | TGI | > 100 µM |
| Cc1ccc(-c2c(C#N)c(N)[nH]c(=S)c2C#N)cc1 | TGI | > 100 µM |
